# assayed target: RSV prefusion F (preF), DS-Cav1 (Respiratory Syncytial Virus)
# assay text: BLI, IgG on anti-human IgG sensor, 100 nM antigen
quantity measured: Kd (nM)

>>> observed_measurement("ADI-41204 (antibody, V domains shown) VH: EVQLLESGGGLVKPGGSLRLSCAASGFTFSSYSMNWVRQAPGKGLEWVSSISAGSSYIYYADSVKGRFTISRDNAKNSLYLQMNSLRAEDTAVYYCARVPSYETTPYFDYWGQGTLVTVSS VL: QSVLTQPPSVSGAPGQRVTISCTGSSSNIGSGYDLHWYQQLPGTAPKLLIYVNSNRPSGVPDRFSGSKSGTSASLAITGLQAEDEADYYCQSYDSSLSGYVFGTGTKVTVL")
0.545
>>> observed_measurement("ADI-41168 (antibody, V domains shown) VH: EVQLVETGGGVVQPGRSLRLSCAASGFTFSSYGMHWVRQAPGKGLEWVAVISYDGSNKYYADSVKGRFTISRDNSKNTLYLQMNSLRTEDTAVYYCAKGGGYYYYYMDVWGKGTTVTVSS VL: QPVLTQPASVSGSPGQSITISCTGTSSDVGGYNYVSWYQQHPGKAPKLMIYGVNNRPSGVSNRFSGSKSGNTASLTISGLQGEDEADYYCNSYRSGITVVFGGGTKLTVL")
133
>>> observed_measurement("ADI-41226 (antibody, V domains shown) VH: EVQLVESGGGLVKPGGSLRLSCAASRFTFAGYYMSWIRQAPGKGLEWVSDISPSSTYTNYADSVKGRFTISRDNAGTSVSLQMDSLRADDTAVYYCARITPYGGSHYFDSWGQGTLVTVSS VL: QPVLTQPPSVSGAPGQRVTISCTGSSSNIGAGYDLHWYQQLPGTAPKLLIYGNSNRPSGVPDRFSGSKSGTSASLAITGLQAEDEADYYCQSYDNSLSGFYVFGTGTKVTVL")
0.82
>>> observed_measurement("ADI-41234 (antibody, V domains shown) VH: QVQLVQSGGGVVQPGRSLRLSCAASGFTVSSYAIHWVRQSAGKGLEWVAVEGRFTISRDNSKNTLYLQMNSLRAEDTAVYYCARLSEALVEPAAHTQYKYHYGLDVWGQGTTVTVSS VL: EIVLTQSPLSLPVTPGEPASISCKSSQSLLDSNGYNYLDWYLQKPGQSPQLLIYLVSNRASGVPDRFSGSGSGTDFTLKISRVEAEDVGIYYCMQALQTPWTFGQGTKVEIK")
1.46
>>> observed_measurement("ADI-41217 (antibody, V domains shown) VH: EVQLVQSGGGLVKPGGSLRLSCVASGFTFSSYSMNWVRQAPGKGLEWVSSISASSSYIDYADSVKGRFTISRDNDKKSLYLQMSSLRAEDTAVYYCAREDYDSLTGYYSPKRFDPWGQGTLVTVSS VL: QSVLTQPPSLSGAPGQRVTISCTGSSSNIGAGYDVHWYQQLPGTAPKLLIYGNNNRPSGVPDRFSGSKSGTSASLAITGLQAEDEADYYCQSYDRSLSVVFGGGTKVTVL")
0.489
